- system tested: ACE2 (Homo sapiens), Q9BYF1
- Sequence (Q9BYF1 18-740): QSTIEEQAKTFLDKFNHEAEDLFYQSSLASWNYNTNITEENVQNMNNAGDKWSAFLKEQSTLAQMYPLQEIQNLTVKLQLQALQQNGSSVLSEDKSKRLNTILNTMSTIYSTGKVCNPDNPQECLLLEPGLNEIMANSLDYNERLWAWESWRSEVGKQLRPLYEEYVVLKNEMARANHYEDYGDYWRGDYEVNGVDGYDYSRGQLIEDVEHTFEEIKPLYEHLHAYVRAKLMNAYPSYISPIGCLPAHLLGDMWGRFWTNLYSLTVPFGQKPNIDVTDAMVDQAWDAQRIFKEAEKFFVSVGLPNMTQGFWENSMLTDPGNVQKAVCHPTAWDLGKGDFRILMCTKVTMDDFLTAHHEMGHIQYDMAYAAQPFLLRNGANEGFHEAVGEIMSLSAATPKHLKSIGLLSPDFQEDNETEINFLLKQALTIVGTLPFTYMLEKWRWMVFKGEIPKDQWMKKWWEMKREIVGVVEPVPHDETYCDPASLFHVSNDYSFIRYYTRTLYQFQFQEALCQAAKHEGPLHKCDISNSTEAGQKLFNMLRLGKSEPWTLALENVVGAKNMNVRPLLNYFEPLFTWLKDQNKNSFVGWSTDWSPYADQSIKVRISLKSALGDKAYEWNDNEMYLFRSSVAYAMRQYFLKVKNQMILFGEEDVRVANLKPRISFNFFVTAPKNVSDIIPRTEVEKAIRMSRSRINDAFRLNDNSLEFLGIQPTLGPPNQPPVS
- assay name: SPR
- measurement parameters: modification not given
pKd: −log10 of the molar value.

>  <binder>
CYWPLNDYGFYT [RBD-14 peptide, P59594]

>  <pKd>
3.35

$$$$
